# System: MALME-3M melanoma
# ASSAY_PROTOCOL: NCI-60 one-dose screen, 48 h (100 = growth as untreated, 0 = no growth, -100 = all killed)
# PARTICULARS: 10 µM unless noted
About 83,000 compounds went through this panel and 20% of them were active in at least one assay; those are over-represented in the sample as a whole.
Reported growth is given for each of the following compounds.
Form entry: value (%) — number only.

1) CC(=O)NNc1ccc2nnc(-c3ccccc3)n2n1 : 98.5
2) C#CCOc1ccc(/C=N/Nc2nc(-c3ccc(Cl)cc3)cs2)cc1OC : 91.6

Consider now this further compound.
Reading of growth for "NS(=O)(=O)c1ccc(-n2cc(-c3cccc(NC(=O)c4cc(C(F)(F)F)cc(C(F)(F)F)c4)c3)nn2)cc1" with MALME-3M melanoma: 63.7

----------
# System: CCRF-CEM leukemia
# ASSAY_PROTOCOL: NCI-60 one-dose screen, 48 h (100 = growth as untreated, 0 = no growth, -100 = all killed)
# PARTICULARS: 10 µM unless noted
Compounds without any hit were thinned out: in the full panel of roughly 83,000, 20% have a hit.
Classify by measured growth: satisfied if it is equal to or exceeds 30%, not satisfied if it is smaller.

Recorded results for 6 compounds are shown here.
1) Cc1cccc(NC(=O)CN2CCN(c3ncnc4c3cnn4-c3ccccc3)CC2)c1 : satisfied
2) CC(=O)Nc1cccc(-c2nc3cc(-c4ccc(O)cc4)ccc3n2C)c1 : not satisfied
3) CN1CCN(c2ccc3c(c2)nc(NNC(=O)c2cnccn2)c2cccn23)CC1 : not satisfied
4) COc1ccc(-c2ccnc(SCc3cc4ccccc4[nH]c3=O)n2)cc1 : satisfied
5) C=C1CC[C@@H]2[C@]3(C)COC(c4cn[nH]c4-c4cccc(Cl)c4)O[C@@H]3CC[C@@]2(C)[C@@H]1C/C=C1/C(=O)OCC1O (stereo partly drawn) : not satisfied
6) COc1c(F)ccc(C(=O)Nc2ccc3nc(NC(=O)C4CCCN(S(=O)(=O)c5ccc(Cl)cc5)C4)sc3c2)c1F (stereo not drawn) : satisfied

Task item: Determine whether measured growth meets or exceeds 30% for COc1ccc(CCC2c3c(cc4c(c3OC)OCO4)CCN2C)cc1 (stereo not drawn)
Reply: not satisfied

Task item: Exam item: decide whether the reported growth for "Cn1cc(-c2cc3nc(-c4cn(C)c5ncc(Br)cc45)cc(N)n3n2)c2ccccc21" is at least 30%.
Reply: not satisfied

----------
# System: SF-539 CNS
# ASSAY_PROTOCOL: NCI-60 one-dose screen, 48 h (100 = growth as untreated, 0 = no growth, -100 = all killed)
# PARTICULARS: 10 µM unless noted
# Protocol: Cells are grown in 96 well plates and exposed to the test compound for 48 hours. Compounds are tested at a single concentration, which is 10^-5 M for most compounds. The reported endpoint is percent growth (GI% or GIPRCNT), where numbers from 0 - 100% represent growth inhibition, and numbers from -100% - 0 represent cell death. For example, a value of 40 represents 60% growth inhibition. A value of 0 means no net growth occurred over the course of the experiment. […]
This is part of a sample that, as a whole, favours compounds with a hit. Of some 83,000 tested, about 20% had one in any assay.
READOUT_KIND: growth (%)
Note: unit % is implicit; provide only the numeric part.

In the examples that follow, each entry is paired with its recorded growth.
1. COc1ccc(-c2nc3cc(C)ccc3n2CC(=O)N=Nc2c(O)[nH]c3ccc(Br)cc23)cc1 : -67.1
2. N#Cc1cnn(C(=O)c2ccccc2Br)c1NC(=O)c1ccc(Br)cc1Cl : 96.9
3. C=C1CCC2C3(C)COC(c4ccco4)OC3CCC2(C)C1CC(Sc1ccccc1)C1=CCOC1=O (stereo not given) : 48.3
4. COc1ccc(-c2ccnc(SCc3cc4cc(Cl)ccc4[nH]c3=O)n2)cc1 : 46.2

Let's switch to this compound now.
The reported growth of the compound "O=C(Cn1c2c(sc1=O)[C@H]1[C@@H](O)[C@@H](O)[C@H](O)[C@@H]1CS2)N1CCOCC1" was 96.8
